For each entry below, report its viability, T/C value.
# Test system: 242566-281-R-J2-PDC complex spheroid viability
# ASSAY TEXT: Anticancer human tumor 242566-281-R-J2-PDC patient-derived pancreatic carcinoma cell line growth inhibition [RAS]
# SETTINGS: second compound 0.3 µM; first compound 0.000949 µM; hits give low values
One number for each entry, in %.

1. CC1(C)CCC(Nc2ncc(C(F)(F)F)c(-c3c[nH]c4c(P(C)(C)=O)c(C#N)ccc34)n2)CN1 (centres undefined) + CCn1c(-c2cccnc2C(C)OC)c2c3cc(ccc31)N1CCOC(CC(NC(=O)C(C(C)C)N(C)C(=O)C3(F)CCN(C(=O)C#CC(C)(C)N(C)C)CC3)C(=O)N3CCCC(N3)C(=O)OCC(C)(C)C2)C1 ... 91
2. CCc1c2c(nc3ccc(O)cc13)-c1cc3c(c(=O)n1C2)COC(=O)[C@]3(O)CC + CCn1c(-c2cc(N3CCN(C)CC3)cnc2C(C)OC)c2c3cc(ccc31)-c1csc(n1)CC(NC(=O)C1CC1C)C(=O)N1CCCC(N1)C(=O)OCC(C)(C)C2 ... 22.7
3. CCc1c2c(nc3ccc(O)cc13)-c1cc3c(c(=O)n1C2)COC(=O)[C@]3(O)CC + CCn1c(-c2cccnc2C(C)OC)c2c3cc(ccc31)N1CCOC(CC(NC(=O)C(C(C)C)N(C)C(=O)C3(F)CCN(C(=O)C#CC(C)(C)N(C)C)CC3)C(=O)N3CCCC(N3)C(=O)OCC(C)(C)C2)C1 ... 84.4

Now consider the entry below.
Asked: Item under review: CC1(C)CCC(Nc2ncc(C(F)(F)F)c(-c3c[nH]c4c(P(C)(C)=O)c(C#N)ccc34)n2)CN1 (centres undefined) + CCn1c(-c2cc(N3CCN(C)CC3)cnc2C(C)OC)c2c3cc(ccc31)-c1csc(n1)CC(NC(=O)C1CC1C)C(=O)N1CCCC(N1)C(=O)OCC(C)(C)C2 . Reported viability, T/C?
Given back: 21.6

* * *

# Test system: 242566-281-R-J2-PDC complex spheroid viability
# ASSAY TEXT: Anticancer human tumor 242566-281-R-J2-PDC cell line growth inhibition [RAS];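 also: spheroids exposed to compound for 7 days before readout; 100% = DMSO vehicle control wells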
# SETTINGS: second compound 0.000949 µM; first compound 0.01 µM; hits give low values
METRIC: viability, T/C (%)
Give bare numbers, in %.

Check out these entries, answers already filled in.
1. C=CC(=O)N1CCN(c2nc(OCC3CCCN3C)nc3c(F)c(-c4nc(N)cc(C)c4C(F)(F)F)c(Cl)cc23)C(C)C1 (centres undefined) + CCn1c(-c2cc(N3CCN(C)CC3)cnc2C(C)OC)c2c3cc(ccc31)-c1csc(n1)CC(NC(=O)C1CC1C)C(=O)N1CCCC(N1)C(=O)OCC(C)(C)C2 ... 90.3
2. CCN1CCN(Cc2ccc(Nc3ncc(F)c(-c4cc(F)c5nc(C)n(C(C)C)c5c4)n3)nc2)CC1 + CCn1c(-c2cccnc2C(C)OC)c2c3cc(ccc31)N1CCOC(CC(NC(=O)C(C(C)C)N(C)C(=O)C3(F)CCN(C(=O)C#CC(C)(C)N(C)C)CC3)C(=O)N3CCCC(N3)C(=O)OCC(C)(C)C2)C1 ... 92.2
3. Nc1ccn(C2OC(CO)C(O)C2(F)F)c(=O)n1 (centres undefined) + CCn1c(-c2cccnc2C(C)OC)c2c3cc(ccc31)N1CCOC(CC(NC(=O)C(C(C)C)N(C)C(=O)C3(F)CCN(C(=O)C#CC(C)(C)N(C)C)CC3)C(=O)N3CCCC(N3)C(=O)OCC(C)(C)C2)C1 ... 88

From here, focus on the item given below.
Asked: Query: viability, T/C; subject: CCN1CCN(Cc2ccc(Nc3ncc(F)c(-c4cc(F)c5nc(C)n(C(C)C)c5c4)n3)nc2)CC1 + CCn1c(-c2cc(N3CCN(C)CC3)cnc2C(C)OC)c2c3cc(ccc31)-c1csc(n1)CC(NC(=O)C1CC1C)C(=O)N1CCCC(N1)C(=O)OCC(C)(C)C2
Given back: 88.5

* * *

Please respond with reported viability, T/C for every item in the list.
# System: 242566-281-R-J2-PDC complex spheroid viability
# ASSAY TEXT: Anticancer human tumor 242566-281-R-J2-PDC cell line growth inhibition [RAS];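 also: spheroids exposed to compound for 7 days before readout; 100% = DMSO vehicle control wells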
# SETTINGS: second compound 0.3 µM; first compound 0.01 µM; hits give low values
Give bare numbers, in %.

1. O=C(c1ccc(F)c(F)c1Nc1ccc(I)cc1F)N1CC(O)([C@@H]2CCCCN2)C1 + CCn1c(-c2cccnc2C(C)OC)c2c3cc(ccc31)N1CCOC(CC(NC(=O)C(C(C)C)N(C)C(=O)C3(F)CCN(C(=O)C#CC(C)(C)N(C)C)CC3)C(=O)N3CCCC(N3)C(=O)OCC(C)(C)C2)C1 ... 75.3
2. Nc1ccn(C2OC(CO)C(O)C2(F)F)c(=O)n1 (stereo not drawn) + CCn1c(-c2cc(N3CCN(C)CC3)cnc2C(C)OC)c2c3cc(ccc31)-c1csc(n1)CC(NC(=O)C1CC1C)C(=O)N1CCCC(N1)C(=O)OCC(C)(C)C2 ... 18.2
3. C=CC(=O)N1CCN(c2nc(OCC3CCCN3C)nc3c(F)c(-c4nc(N)cc(C)c4C(F)(F)F)c(Cl)cc23)C(C)C1 (stereo not drawn) + CCn1c(-c2cc(N3CCN(C)CC3)cnc2C(C)OC)c2c3cc(ccc31)-c1csc(n1)CC(NC(=O)C1CC1C)C(=O)N1CCCC(N1)C(=O)OCC(C)(C)C2 ... 20.6
4. C=CC(=O)Nc1cc(Nc2nccc(-c3cn(C)c4ccccc34)n2)c(OC)cc1N(C)CCN(C)C + CCn1c(-c2cc(N3CCN(C)CC3)cnc2C(C)OC)c2c3cc(ccc31)-c1csc(n1)CC(NC(=O)C1CC1C)C(=O)N1CCCC(N1)C(=O)OCC(C)(C)C2 ... 18.2
5. C=CC(=O)N1CCN(c2nc(OCC3CCCN3C)nc3c(F)c(-c4nc(N)cc(C)c4C(F)(F)F)c(Cl)cc23)C(C)C1 (stereo not drawn) + CCn1c(-c2cccnc2C(C)OC)c2c3cc(ccc31)N1CCOC(CC(NC(=O)C(C(C)C)N(C)C(=O)C3(F)CCN(C(=O)C#CC(C)(C)N(C)C)CC3)C(=O)N3CCCC(N3)C(=O)OCC(C)(C)C2)C1 ... 87.3
6. O=C(c1ccc(F)c(F)c1Nc1ccc(I)cc1F)N1CC(O)([C@@H]2CCCCN2)C1 + CCn1c(-c2cc(N3CCN(C)CC3)cnc2C(C)OC)c2c3cc(ccc31)-c1csc(n1)CC(NC(=O)C1CC1C)C(=O)N1CCCC(N1)C(=O)OCC(C)(C)C2 ... 16.4

Go through the items and report each one's viability, T/C.
1. CC(C)n1nc(-c2ccc3oc(N)nc3c2)c2c(N)ncnc21 + CCn1c(-c2cc(N3CCN(C)CC3)cnc2C(C)OC)c2c3cc(ccc31)-c1csc(n1)CC(NC(=O)C1CC1C)C(=O)N1CCCC(N1)C(=O)OCC(C)(C)C2
2. CC(C)n1nc(-c2ccc3oc(N)nc3c2)c2c(N)ncnc21 + CCn1c(-c2cccnc2C(C)OC)c2c3cc(ccc31)N1CCOC(CC(NC(=O)C(C(C)C)N(C)C(=O)C3(F)CCN(C(=O)C#CC(C)(C)N(C)C)CC3)C(=O)N3CCCC(N3)C(=O)OCC(C)(C)C2)C1

Given back:
11.5
58.8

* * *

# System: 242566-281-R-J2-PDC complex spheroid viability
# ASSAY TEXT: Anticancer human tumor 242566-281-R-J2-PDC cell line growth inhibition [RAS];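 also: spheroids exposed to compound for 7 days before readout; 100% = DMSO vehicle control wells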
# SETTINGS: second compound 0.01 µM; first compound 0.316 µM; hits give low values
METRIC: viability, T/C (%)
Numbers only, in %.

1. CCC(CC)c1cc(NC2CCC(N)C2)n2nccc2n1 (configuration not stated) + C=CC(=O)N1CCN(c2nc(OCC3CCCN3C)nc3c(F)c(-c4nc(N)cc(C)c4C(F)(F)F)c(Cl)cc23)C(C)C1 ... 108
2. CC(Nc1ccc2c(c1)OCCn1cc(N3C(=O)OCC3C(F)F)nc1-2)C(N)=O (configuration not stated) + C=CC(=O)N1CCN(c2nc(OCC3CCCN3C)nc3c(F)c(-c4nc(N)cc(C)c4C(F)(F)F)c(Cl)cc23)C(C)C1 ... 80.3
3. CC(C)NCC(C(=O)N1CCN(c2ncnc3c2C(C)CC3O)CC1)c1ccc(Cl)cc1 (configuration not stated) + C=CC(=O)N1CCN(c2nc(OCC3CCCN3C)nc3c(F)c(-c4nc(N)cc(C)c4C(F)(F)F)c(Cl)cc23)C(C)C1 ... 102
4. CCN1CCN(Cc2ccc(Nc3ncc(F)c(-c4cc(F)c5nc(C)n(C(C)C)c5c4)n3)nc2)CC1 + C=CC(=O)N1CCN(c2nc(OCC3CCCN3C)nc3c(F)c(-c4nc(N)cc(C)c4C(F)(F)F)c(Cl)cc23)C(C)C1 ... 127
5. Nc1ccn(C2OC(CO)C(O)C2(F)F)c(=O)n1 (configuration not stated) + C=CC(=O)N1CCN(c2nc(OCC3CCCN3C)nc3c(F)c(-c4nc(N)cc(C)c4C(F)(F)F)c(Cl)cc23)C(C)C1 ... 26

Give viability, T/C for all molecules that follow.
1. CC(=O)OC12COC1CC(O)C1(C)C(=O)C(O)C3=C(C)C(OC(=O)C(O)C(NC(=O)OC(C)(C)C)c4ccccc4)CC(O)(C(OC(=O)c4ccccc4)C21)C3(C)C (configuration not stated) + C=CC(=O)N1CCN(c2nc(OCC3CCCN3C)nc3c(F)c(-c4nc(N)cc(C)c4C(F)(F)F)c(Cl)cc23)C(C)C1
2. C[C@@H](NC(=O)c1ncnc(N)c1Cl)c1ncc(C(=O)Nc2cc(C(F)(F)F)c(Cl)cn2)s1 + C=CC(=O)N1CCN(c2nc(OCC3CCCN3C)nc3c(F)c(-c4nc(N)cc(C)c4C(F)(F)F)c(Cl)cc23)C(C)C1
3. NC1c2ccccc2OC12CCN(c1cnc3c(N4CCCc5ncccc54)n[nH]c3n1)CC2 (configuration not stated) + C=CC(=O)N1CCN(c2nc(OCC3CCCN3C)nc3c(F)c(-c4nc(N)cc(C)c4C(F)(F)F)c(Cl)cc23)C(C)C1
4. O=C(c1ccc(F)c(F)c1Nc1ccc(I)cc1F)N1CC(O)([C@@H]2CCCCN2)C1 + C=CC(=O)N1CCN(c2nc(OCC3CCCN3C)nc3c(F)c(-c4nc(N)cc(C)c4C(F)(F)F)c(Cl)cc23)C(C)C1
5. C=CC(=O)Nc1cc(Nc2nccc(-c3cn(C)c4ccccc34)n2)c(OC)cc1N(C)CCN(C)C + C=CC(=O)N1CCN(c2nc(OCC3CCCN3C)nc3c(F)c(-c4nc(N)cc(C)c4C(F)(F)F)c(Cl)cc23)C(C)C1
6. CC1(O)CCCC1n1c(=O)c(C(F)F)cc2cnc(NC3CCN(S(C)(=O)=O)CC3)nc21 (configuration not stated) + C=CC(=O)N1CCN(c2nc(OCC3CCCN3C)nc3c(F)c(-c4nc(N)cc(C)c4C(F)(F)F)c(Cl)cc23)C(C)C1
7. Cc1nc(N2CCC3(CC2)COC(C)C3N)c(CO)nc1Sc1ccnc(N)c1Cl (configuration not stated) + C=CC(=O)N1CCN(c2nc(OCC3CCCN3C)nc3c(F)c(-c4nc(N)cc(C)c4C(F)(F)F)c(Cl)cc23)C(C)C1

Given back:
1. 42.2
2. 113
3. 107
4. 53.5
5. 86.1
6. 106
7. 89.3
